# experimental-target: S1P1 (Homo sapiens)
# Sequence (P21453 whole entry, species assumed): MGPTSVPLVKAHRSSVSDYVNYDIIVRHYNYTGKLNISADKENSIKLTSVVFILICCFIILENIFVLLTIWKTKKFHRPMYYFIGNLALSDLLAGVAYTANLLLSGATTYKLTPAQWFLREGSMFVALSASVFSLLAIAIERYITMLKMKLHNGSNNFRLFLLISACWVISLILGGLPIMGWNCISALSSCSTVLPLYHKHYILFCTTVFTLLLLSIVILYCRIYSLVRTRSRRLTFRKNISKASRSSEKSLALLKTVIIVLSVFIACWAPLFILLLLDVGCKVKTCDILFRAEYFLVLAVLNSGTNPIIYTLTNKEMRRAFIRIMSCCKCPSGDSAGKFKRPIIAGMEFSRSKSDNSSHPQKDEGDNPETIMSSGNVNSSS
# experiment-summary: 35S-GTPyS binding assay
# condition-summary: membranes; compounds at 0.1nM-10µM; 0.1nM 35S-GTPyS; 10µM S1P used as 100% maximum efficacy; 90 min at room temperature
pEC50: −log10 of the molar value.
assay-endpoint: pEC50

Worked cases, answers included:
[[record]]
molecule = "CCCCN(c1nnc(-c2ccc(CN3CC(C(=O)O)C3)cc2)s1)S(=O)(=O)Cc1ccccc1"
assay_endpoint = "pEC50"
val = 6.91

[[record]]
molecule = "CCCCN(Cc1ccccc1Cl)c1nnc(-c2cc(C)c(OC)c(C)c2)s1"
assay_endpoint = "pEC50"
val = 7.41

[[record]]
molecule = "CCCCN(Cc1ccccc1F)c1nnc(-c2cc(C)c(OCCN3CC(C(=O)O)C3)c(C)c2)s1"
assay_endpoint = "pEC50"
val = 7.48

[[record]]
molecule = "CCCCN(Cc1ccccc1Cl)c1nnc(-c2cc(C)c(OC[C@H](O)CO)c(C)c2)s1"
assay_endpoint = "pEC50"
val = 7.82


[I] CCCCN(Cc1ccccc1F)c1nnc(-c2cc(C)c(OCCNCCC(=O)O)c(C)c2)s1
[II] CCCCN(Cc1ccccc1Cl)c1nnc(-c2cc(C)c(OCC(O)CN)c(C)c2)s1 (stereo not shown)
Input: For the two items I and II , which reports the higher pEC50 value? Provide the label of your selected option as the answer.
Output: I
(I: 8.30, II: 7.49)
